Overview of recorded EC50 for various molecules
test system: A549; assay: Cytotoxicity against human A549 cells after 48 hrs by SRB assay; type: functional; details: A549, 48 h, read-out: ED50 (the source's name)

O=C(c1nc(-c2c[nH]c3ccccc23)c[nH]1)c1c[nH]c2cc(O)ccc12 [TOPSENTIN] = > 30 µg/mL
O=C1NC[C@@H](c2c[nH]c3cc(Br)ccc23)N[C@H]1c1c[nH]c2cc(Br)ccc12 (relative stereo) [CIS-3,4-DIHYDROHAMACANTHIN B] = 3.41 µg/mL
COc1cccc2c1C(=O)c1c(O)c3c(c(O)c1C2=O)C[C@@](O)(C(=O)CO)C[C@@H]3O[C@H]1C[C@H](N)[C@H](O)[C@H](C)O1 [DOXORUBICIN] = 0.01 µg/mL

Would you kindly look at the next entry?
## Task Any idea what EC50 came out for O=C(c1nc(-c2c[nH]c3cc(Br)ccc23)c[nH]1)c1c[nH]c2cc(O)ccc12 [BROMOTOPSENTIN] on A549?
## Result > 30 µg/mL
